Study target: UniProtKB Q9Y4K0
Sequence (Q9Y4K0 26-774): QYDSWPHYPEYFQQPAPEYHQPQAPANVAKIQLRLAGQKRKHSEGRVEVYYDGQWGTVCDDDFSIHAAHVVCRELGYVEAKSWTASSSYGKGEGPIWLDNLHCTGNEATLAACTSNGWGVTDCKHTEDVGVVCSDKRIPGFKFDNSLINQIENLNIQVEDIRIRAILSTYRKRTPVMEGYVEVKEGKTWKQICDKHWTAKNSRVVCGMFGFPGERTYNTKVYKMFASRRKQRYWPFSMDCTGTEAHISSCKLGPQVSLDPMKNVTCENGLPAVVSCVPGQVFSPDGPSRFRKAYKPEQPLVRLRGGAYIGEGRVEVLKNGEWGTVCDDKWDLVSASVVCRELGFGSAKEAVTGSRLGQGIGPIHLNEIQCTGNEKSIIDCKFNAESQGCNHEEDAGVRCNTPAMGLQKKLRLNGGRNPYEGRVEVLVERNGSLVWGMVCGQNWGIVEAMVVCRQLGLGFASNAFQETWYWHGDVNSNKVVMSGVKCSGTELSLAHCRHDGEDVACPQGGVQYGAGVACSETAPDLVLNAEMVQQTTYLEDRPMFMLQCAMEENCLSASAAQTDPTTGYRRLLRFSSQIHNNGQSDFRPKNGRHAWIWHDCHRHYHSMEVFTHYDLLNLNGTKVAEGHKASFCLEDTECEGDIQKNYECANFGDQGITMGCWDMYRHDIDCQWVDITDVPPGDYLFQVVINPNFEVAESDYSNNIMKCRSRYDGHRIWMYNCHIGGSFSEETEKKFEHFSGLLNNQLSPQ
Assay procedure: Human LOXL2 Amine Oxidase Activity Assay (Amplex Red fluorescence)
Assay type: biochemical
Condition set: concentrated conditioned media from CHO cells stably expressing human LOXL2; 2 h at 37° C. preincubation; DAP substrate; read-out: IC50
Structures can show the parent of a compound that is named as a salt.
Below, each of the molecules is paired with its reported IC50 value.

NCc1ccnc(-c2cccc(C(=O)NCc3ccccc3)c2)c1 [Compound 1-8, hydrochloride] :: < 0.3 µM
NCc1ccnc(OC2CCCCC2)c1 :: < 0.3 µM
NCc1ccnc(N2C[C@@H](O)[C@H](F)C2)c1 (racemic) :: > 1 µM

Shifting focus to the molecule that follows.
[in] GET /values?readout=IC50&item= COc1ccc(Cn2c(C)cc3c(Oc4cc(CN)ccn4)cccc32)cn1 [Compound 2-13, trifluoroacetate]
[out] < 0.3 µM
